# System: Bel-7402
# MEASUREMENT_NOTES: Antiproliferative activity against human Bel-7402 cells assessed as inhibition of cell growth measured after 48 hrs by CCK-8 assay
# Type: functional, cell-based
# EXPERIMENTAL_SETUP: Bel-7402, 48 h
MEASUREMENT_NAME: IC50 (µM)

COMPOUND_STRUCTURE | TARGET_UNDER_TEST | IC50 (µM)
COc1cc([C@@H]2Oc3cc(/C=C/c4cc(O)cc(O)c4)ccc3O[C@H]2CNC(=O)S(=O)(=O)c2ccc(C)cc2)cc(OC)c1O | Bel-7402 | 6.29

[1] COc1cc([C@@H]2Oc3cc(/C=C/c4ccc(C#N)cc4)ccc3O[C@H]2CO)cc(OC)c1O
[2] COc1cc([C@@H]2Oc3cc(/C=C/c4cc(O)cc(O)c4)ccc3O[C@H]2CO)cc(OC)c1O
Problem: Field: entry with larger IC50 (options 1 / 2 ). Please reply using the label of the selected record.
Result: 2
(2: 64.9 µM, 1: 0.86 µM)

====

# System: HT-29
# MEASUREMENT_NOTES: Antiproliferative activity against human HT-29 cells assessed as inhibition of cell growth measured after 48 hrs by CCK-8 assay
# Type: functional, cell-based
# EXPERIMENTAL_SETUP: HT-29, 48 h
pIC50: −log10 of the molar value.
MEASUREMENT_NAME: pIC50

COMPOUND_STRUCTURE | pIC50
COC(=O)c1ccc(/C=C/c2ccc3c(c2)O[C@@H](c2cc(OC)c(O)c(OC)c2)[C@H](CO)O3)cc1 | 4.99
COc1cc([C@@H]2Oc3cc(-c4ccccc4)ccc3O[C@H]2CO)cc(OC)c1O | 4.72
COc1cc([C@@H]2Oc3cc(/C=C/c4cc(O)cc(O)c4)ccc3O[C@H]2CNC(=O)C(C)C)cc(OC)c1O | 4.86

====

# System: HCT-116
# MEASUREMENT_NOTES: Antiproliferative activity against human HCT-116 cells assessed as inhibition of cell growth measured after 48 hrs by CCK-8 assay
# Format: functional, cell-based
# EXPERIMENTAL_SETUP: HCT-116, 48 h
MEASUREMENT_NAME: IC50 (µM)

See these solved cases before continuing.
COMPOUND_STRUCTURE | IC50 / µM
COc1cc([C@@H]2Oc3cc(/C=C/c4ccc5ccccc5n4)ccc3O[C@H]2CO)cc(OC)c1O | 8.83
COc1cc([C@@H]2Oc3cc(/C=C/c4cc(O)cc(O)c4)ccc3O[C@H]2CNC(=O)c2cc(F)c(F)c(F)c2)cc(OC)c1O | 12.3
COc1cc([C@@H]2Oc3cc(/C=C/c4cc(O)cc(O)c4)ccc3O[C@H]2CNC(C)=O)cc(OC)c1O | 47.7

[P] COc1cc([C@@H]2Oc3cc(CCc4cc(O)cc(O)c4)ccc3O[C@H]2CO)cc(OC)c1O
[Q] COc1cc([C@@H]2Oc3cc(/C=C/c4ccc(I)cc4)ccc3O[C@H]2CO)cc(OC)c1O
Problem: Field: entry with larger IC50 (options P / Q ). Please reply using the label of the selected record.
Result: P

====

# Tested on: HT-29
# MEASUREMENT_NOTES: Antiproliferative activity against human HT-29 cells assessed as inhibition of cell growth measured after 48 hrs by CCK-8 assay
# Format: functional, cell-based
# EXPERIMENTAL_SETUP: HT-29, 48 h
MEASUREMENT_NAME: IC50 (µM)

See these solved cases before continuing.
COMPOUND_STRUCTURE | MEASUREMENT_UNIT | IC50
CCCCCCCCCCCCC(=O)NC[C@@H]1Oc2ccc(/C=C/c3cc(O)cc(O)c3)cc2O[C@H]1c1cc(OC)c(O)c(OC)c1 | µM | 7.7
COc1cc([C@@H]2Oc3cc(/C=C/c4cc(O)cc(O)c4)ccc3O[C@H]2CO)cc(OC)c1O | µM | 8.36

[1] COc1cc([C@@H]2Oc3cc(/C=C/c4ccc5ccccc5n4)ccc3O[C@H]2CO)cc(OC)c1O
[2] COc1cc([C@@H]2Oc3cc(/C=C/c4ccc(C#N)cc4)ccc3O[C@H]2CO)cc(OC)c1O
Problem: Field: entry with larger IC50 (options 1 / 2 ). Please reply using the label of the selected record.
Result: 1
(1: 14.9 µM, 2: 2.42 µM)

====

# System: HT-29
# MEASUREMENT_NOTES: Antiproliferative activity against human HT-29 cells assessed as inhibition of cell growth measured after 48 hrs by CCK-8 assay
# Type: functional, cell-based
# EXPERIMENTAL_SETUP: HT-29, 48 h
pIC50: −log10 of the molar value.
MEASUREMENT_NAME: pIC50

MOLECULE | pIC50
COc1cc([C@@H]2Oc3cc(/C=C/c4cccc(C#N)c4)ccc3O[C@H]2CO)cc(OC)c1O | 4.87
COc1cc([C@@H]2Oc3cc(/C=C/c4ccccc4C#N)ccc3O[C@H]2CO)cc(OC)c1O | 4.83
COc1cc(/C=C/c2ccc3c(c2)O[C@@H](c2cc(OC)c(O)c(OC)c2)[C@H](CO)O3)cc(OC)c1 | 4.85
COc1cc([C@@H]2Oc3cc(/C=C/c4ccccn4)ccc3O[C@H]2CO)cc(OC)c1O | 4.48
COc1cc([C@@H]2Oc3cc(/C=C/c4cc(OC(C)=O)cc(OC(C)=O)c4)ccc3O[C@H]2COC(C)=O)cc(OC)c1OC(C)=O | 4.98
COc1ccc(C(=O)NC[C@@H]2Oc3ccc(/C=C/c4cc(O)cc(O)c4)cc3O[C@H]2c2cc(OC)c(O)c(OC)c2)cc1 | 4.79
OC[C@@H]1Oc2ccc(/C=C/c3cc(O)cc(O)c3)cc2O[C@H]1c1cc(F)c(O)c(F)c1 | 4.38
COc1cc([C@@H]2Oc3cc(CCc4cc(O)cc(O)c4)ccc3O[C@H]2CO)cc(OC)c1O | 4.79

[1] COc1cc([C@@H]2Oc3cc(/C=C/c4ccc(C(F)(F)F)cc4)ccc3O[C@H]2CO)cc(OC)c1O
[2] COc1cc(C2Oc3cc(/C=C/c4nc(C)c5ccccc5n4)ccc3OC2CO)cc(OC)c1O (single isomer, unassigned)
Problem: Record comparison, field pIC50: mark the lower of 1 and 2 . Please reply using the label of the selected record.
Result: 1
(1: 4.60, 2: 5.36)

[I] COc1cc([C@@H]2Oc3cc(/C=C/c4cc(O)cc(O)c4)ccc3O[C@H]2CNC(=O)c2ccc(F)c(F)c2)cc(OC)c1O
[II] COc1cc([C@@H]2Oc3cc(/C=C/c4cc(O)cc(O)c4)ccc3O[C@H]2CNC(=O)S(=O)(=O)c2ccc(C)cc2)cc(OC)c1O
Problem: Field: entry with larger pIC50 (options I / II ). Please reply using the label of the selected record.
Result: II
(II: 5.23, I: 4.81)

====

# System: HCT-116
# MEASUREMENT_NOTES: Antiproliferative activity against human HCT-116 cells assessed as inhibition of cell growth measured after 48 hrs by CCK-8 assay
# Type: functional, cell-based
# EXPERIMENTAL_SETUP: HCT-116, 48 h
MEASUREMENT_NAME: IC50 (µM)

See these solved cases before continuing.
COMPOUND | TARGET_UNDER_TEST | IC50 / µM
COc1cc([C@@H]2Oc3cc(/C=C/c4cc(O)cc(O)c4)ccc3O[C@H]2CNC(=O)c2ccccc2)cc(OC)c1O | HCT-116 | 15.9
COc1cc(C2Oc3cc(/C=C/c4nc(C)c5ccccc5n4)ccc3OC2CO)cc(OC)c1O (single isomer, unassigned) | HCT-116 | 3.86
COC(=O)c1ccc(/C=C/c2ccc3c(c2)O[C@@H](c2cc(OC)c(O)c(OC)c2)[C@H](CO)O3)cc1 | HCT-116 | 21.2
COc1cc([C@@H]2Oc3cc(/C=C/c4cc(OC(C)=O)cc(OC(C)=O)c4)ccc3O[C@H]2CO)cc(OC)c1OC(C)=O | HCT-116 | 30.9
COc1ccc(C(=O)NC[C@@H]2Oc3ccc(/C=C/c4cc(O)cc(O)c4)cc3O[C@H]2c2cc(OC)c(O)c(OC)c2)cc1 | HCT-116 | 15.9
COc1cc([C@@H]2Oc3cc(/C=C/c4cc(O)cc(O)c4)ccc3O[C@H]2CN)cc(OC)c1O | HCT-116 | 27

[a] COc1cc([C@@H]2Oc3cc(/C=C/c4ccsc4)ccc3O[C@H]2CO)cc(OC)c1O
[b] COc1cc(/C=C/c2ccc3c(c2)O[C@@H](c2cc(OC)c(O)c(OC)c2)[C@H](CO)O3)cc(OC)c1
Problem: Field: entry with larger IC50 (options a / b ). Please reply using the label of the selected record.
Result: a
(a: 42.2 µM, b: 16 µM)

[A] COc1cc([C@@H]2Oc3cc(/C=C/c4cc(O)cc(O)c4)ccc3O[C@H]2CNC(=O)c2ccc(F)cc2)cc(OC)c1O
[B] COc1cc([C@@H]2Oc3cc(/C=C/c4cc(O)cc(O)c4)ccc3O[C@H]2CNC(=O)C(C)C)cc(OC)c1O
Problem: Record comparison, field IC50: mark the lower of A and B . Please reply using the label of the selected record.
Result: A
(A: 16.8 µM, B: 33.1 µM)

[P] COc1cc([C@@H]2Oc3cc(/C=C/c4ccccn4)ccc3O[C@H]2CO)cc(OC)c1O
[Q] COc1cc([C@@H]2Oc3cc(/C=C/c4cc(O)cc(O)c4)ccc3O[C@H]2CNC(=O)c2ccc(C(F)(F)F)cc2)cc(OC)c1O
Problem: Field: entry with larger IC50 (options P / Q ). Please reply using the label of the selected record.
Result: P
